- Test system: Pancreas (PANC-1) cancer cell line
- measurement-description: IC50 in cancer cell lines (Table 3), pancreas
- Assay type: cell-based, human
- applied-conditions: Homo sapiens, PANC-1; Mean ± SEM, n ≥ 3
reported-endpoint: pIC50
Scale: pIC50 equals -log10([C]), with [C] in mol/L.

[[record]]
compound = "CCCCCCCCc1ccc(CCC(N)(CO)CO)cc1.Cl [FTY720, hydrochloride, reference compound]"
observed_measurement = 5.34


As a next step, examine the compound that follows.
Lookup: For the record CCCCCCCCc1ccc([C@H]2CCN[C@@H]2CO)cc1.Cl , what value of pIC50 is listed for Pancreas (PANC-1) cancer cell line?
Found: 5.48
